pIC50: −log10 of the molar value.
Below, pIC50 values reported for Methionine aminopeptidase 2 (Homo sapiens, UniProt P50579) across several publications.
Sequence (P50579 whole entry, species assumed): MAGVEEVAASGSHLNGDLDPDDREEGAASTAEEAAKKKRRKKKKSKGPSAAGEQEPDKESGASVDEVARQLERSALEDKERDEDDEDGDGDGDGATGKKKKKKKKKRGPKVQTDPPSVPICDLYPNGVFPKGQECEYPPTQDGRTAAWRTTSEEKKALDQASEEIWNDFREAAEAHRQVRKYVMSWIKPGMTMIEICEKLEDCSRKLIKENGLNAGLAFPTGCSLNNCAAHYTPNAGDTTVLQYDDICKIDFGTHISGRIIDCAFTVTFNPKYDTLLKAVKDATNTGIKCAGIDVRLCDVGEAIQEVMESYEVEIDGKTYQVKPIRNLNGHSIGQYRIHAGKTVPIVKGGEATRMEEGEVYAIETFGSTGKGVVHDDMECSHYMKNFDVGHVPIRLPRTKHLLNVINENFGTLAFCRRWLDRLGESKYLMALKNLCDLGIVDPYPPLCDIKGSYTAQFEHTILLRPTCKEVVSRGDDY

Solved cases below.
INSERT INTO assay_data (compound, endpoint_result) VALUES
  ('Cn1ccc(CN(C=O)Cc2ccc(OC[C@H]3CCCN3c3ncnc4[nH]cnc34)c3ccccc23)n1', '6.00 to 8.00'),
  ('O=C(NCc1cccc(Br)c1)[C@@]1(O)CCN(c2ccc(Br)cc2)C1=O', '6.00 to 8.00'),
  ('O=C(O)CCN1CCC(O)(C(=O)NCc2cc(F)cc(Cl)c2)C1=O (stereo not drawn)', '< 5.00'),
  ('O=C(NCc1ccc(F)c(Cl)c1F)[C@@]1(O)CCN(c2ccccc2)C1=O', '6.00 to 8.00'),
  ('O=C(NCCc1cccs1)[C@@]1(O)CCN(c2ccc3ccccc3c2)C1=O', '6.00 to 8.00'),
  ('CC(C)NC(=O)c1cc2cc(N3CC[C@](O)(C(=O)NCc4cc(F)cc(Cl)c4)C3=O)ccc2[nH]1', '6.00 to 8.00');

Reported pIC50 of O=C(NCc1cccc(Br)c1)[C@]1(O)CCN(c2ccccc2)C1=O : < 5.00

Reported pIC50 of O=C(NCc1cc(F)cc(Cl)c1)C1(O)CCN([C@@H]2CCNC2)C1=O (stereo partly drawn) : < 5.00

Reported pIC50 of O=C(NC1CCC1)c1cc(OC[C@H]2CCCN2c2ncnc3[nH]cnc23)c2ccccc2n1 : 6.00 to 8.00

Reported pIC50 of N#Cc1cccc(CNC(=O)[C@@]2(O)CCN(c3ccccc3)C2=O)c1 : 6.00 to 8.00

Reported pIC50 of O=C(NCc1cc(F)cc(Cl)c1)C1(O)CCN(C[C@H]2CCCO2)C1=O (stereo partly drawn) : 5.00 to 6.00

Reported pIC50 of CC(=O)OC1(C(=O)NCc2cc(F)cc(Cl)c2)CCN(c2ccc3c(c2)CCC(=O)N3)C1=O (stereo not drawn) : 5.00 to 6.00

Reported pIC50 of Clc1ccc(-n2ccc(OC[C@H]3CCCN3c3ncnc4[nH]cnc34)n2)c(Cl)c1 : 6.00 to 8.00

Reported pIC50 of O=C(/C=C/c1ccccc1OC[C@H]1CCCN1c1ncnc2[nH]cnc12)NCCCO : 6.00 to 8.00

====

Below, IC50 values reported for Methionine aminopeptidase 2 (Homo sapiens) across several publications.

Solved cases below.
INSERT INTO results (molecule, measured_target, assay_readout, endpoint_result) VALUES
  ('CC(C)(C)OC(=O)N1CCc2cccc(OC[C@H]3CCCN3c3ccnc4ncnn34)c2C1', 'Methionine aminopeptidase 2 (Homo sapiens)', 'IC50', '1000 to 10000 nM'),
  ('O=C(O)c1cc(OC[C@H]2CCCN2c2ncnc3[nH]cnc23)c2cc(F)ccc2n1', 'Methionine aminopeptidase 2 (Homo sapiens)', 'IC50', '10 to 1000 nM'),
  ('O=C(NCc1cc(F)cc(Cl)c1)C1(O)CCN(c2cnn(-c3ccccc3)c2)C1=O (stereo not drawn)', 'Methionine aminopeptidase 2 (Homo sapiens)', 'IC50', '10 to 1000 nM'),
  ('CCOC(=O)c1cc2cc(N3CC[C@@](O)(C(=O)NCc4cc(F)cc(Cl)c4)C3=O)ccc2[nH]1', 'Methionine aminopeptidase 2 (Homo sapiens)', 'IC50', '> 10000 nM'),
  ('COc1ccc(N2CCC(O)(C(=O)NCc3cc(F)cc(Cl)c3)C2=O)cn1 (stereo not drawn)', 'Methionine aminopeptidase 2 (Homo sapiens)', 'IC50', '10 to 1000 nM'),
  ('c1cc(OC[C@H]2CCCN2c2ncnc3[nH]cnc23)c2cc[nH]c2c1', 'Methionine aminopeptidase 2 (Homo sapiens)', 'IC50', '1000 to 10000 nM'),
  ('O=C1CCc2cc(NC(=O)C3(O)CCN(c4ccc5c(c4)CCC(=O)N5)C3=O)ccc2N1 (stereo not drawn)', 'Methionine aminopeptidase 2 (Homo sapiens)', 'IC50', '> 10000 nM'),
  ('NCCCCCC(=O)N1CCc2cccc(OC[C@H]3CCCN3c3ncnc4[nH]cnc34)c2C1', 'Methionine aminopeptidase 2 (Homo sapiens)', 'IC50', '10 to 1000 nM');

Shifting focus to the molecule that follows.
Lab entry: Methionine aminopeptidase 2 (Homo sapiens) assay, molecule NC(=O)c1cc2cc(N3CC[C@@](O)(C(=O)NCc4cc(F)cc(Cl)c4)C3=O)ccc2[nH]1 , IC50 = 1000 to 10000 nM

====

Below, pIC50 values reported for Methionine aminopeptidase 2 (Homo sapiens, UniProt P50579) across several publications.
pIC50: −log10 of the molar value.

INSERT INTO measurements (compound, assay_readout, endpoint_result) VALUES
  ('N#CCn1cc(N2CC[C@@](O)(C(=O)NCc3cc(F)cc(Cl)c3)C2=O)cn1', 'pIC50', '< 5.00'),
  ('O=C(c1cc2cc(N3CC[C@](O)(C(=O)NCc4cc(F)cc(Cl)c4)C3=O)ccc2[nH]1)N1CCNCC1', 'pIC50', '6.00 to 8.00'),
  ('CN(C)C(=O)CC1CCc2c(OC[C@H]3CCCN3c3ncnc4[nH]cnc34)cccc2C1=O (some centres unmarked)', 'pIC50', '6.00 to 8.00'),
  ('N#Cc1cncc(N2CC[C@@](O)(C(=O)NCc3cc(F)cc(Cl)c3)C2=O)c1', 'pIC50', '< 5.00'),
  ('O=C(NCCc1cc(F)cc(Cl)c1)[C@]1(O)CCN(c2ccc3[nH]ncc3c2)C1=O', 'pIC50', '5.00 to 6.00'),
  ('O=C(NCCc1cc(F)cc(F)c1)C1(O)CCN(c2ccc3[nH]ccc3c2)C1=O (centres unmarked)', 'pIC50', '6.00 to 8.00'),
  ('O=C(NCCc1cc(F)cc(Cl)c1)[C@@]1(O)CCN(c2ccc(C(F)(F)F)cc2)C1=O', 'pIC50', '6.00 to 8.00'),
  ('c1ccc2c(OC[C@H]3CCCN3c3ncnc4[nH]cnc34)ccc(CN3CCN(C4CCCC4)CC3)c2c1', 'pIC50', '6.00 to 8.00'),
  ('O=C(NCc1ccco1)N1CCN(c2ccc3cccc(OC[C@H]4CCCN4c4ncnc5[nH]cnc45)c3c2)CC1', 'pIC50', '5.00 to 6.00'),
  ('O=CN1CCc2cc(N3CC[C@@](O)(C(=O)NCc4cc(F)cc(Cl)c4)C3=O)ccc21', 'pIC50', '< 5.00');

Lab entry: Methionine aminopeptidase 2 (Homo sapiens, UniProt P50579) assay, compound Brc1cccc(COC[C@H]2CCCN2c2ccnc3ncnn23)c1 , pIC50 = 6.00 to 8.00

Lab entry: Methionine aminopeptidase 2 (Homo sapiens, UniProt P50579) assay, compound O=C(NCCO)c1cc(OC[C@H]2CCCN2c2ncnc3[nH]cnc23)c2ccccc2n1 , pIC50 = 6.00 to 8.00

Lab entry: Methionine aminopeptidase 2 (Homo sapiens, UniProt P50579) assay, compound N#Cc1cncc(N2CC[C@](O)(C(=O)NCc3cc(F)cc(Cl)c3)C2=O)c1 , pIC50 = 5.00 to 6.00

Lab entry: Methionine aminopeptidase 2 (Homo sapiens, UniProt P50579) assay, compound O=C(OC[C@H]1CCCN1c1ccnc2ncnn12)c1cccc(CCl)c1 , pIC50 = 6.00 to 8.00

Lab entry: Methionine aminopeptidase 2 (Homo sapiens, UniProt P50579) assay, compound O=C(OC[C@H]1CCCN1c1ccnc2ncnn12)c1cccc(C(F)(F)F)c1 , pIC50 = < 5.00

Lab entry: Methionine aminopeptidase 2 (Homo sapiens, UniProt P50579) assay, compound CC(=O)Nc1ccc(N2CCC(O)(C(=O)NCCc3cc(F)cc(Cl)c3)C2=O)cn1 (centres unmarked) , pIC50 = 6.00 to 8.00

Lab entry: Methionine aminopeptidase 2 (Homo sapiens, UniProt P50579) assay, compound NC(=O)CCC(=O)N1CCc2cccc(OC[C@H]3CCCN3c3ncnc4[nH]cnc34)c2C1 , pIC50 = 5.00 to 6.00

====

Below, pIC50 values reported for Methionine aminopeptidase 2 (Homo sapiens) across several publications.
pIC50: −log10 of the molar value.

INSERT INTO results (molecule, measured_target, assay_readout, endpoint_result) VALUES
  ('COc1cc2c(OC[C@H]3CCCN3c3ncnc4[nH]cnc34)ncnc2cc1OCc1ccccc1', 'Methionine aminopeptidase 2 (Homo sapiens)', 'pIC50', '< 5.00'),
  ('Oc1ccc2cccc(OC[C@H]3CCCN3c3ncnc4[nH]cnc34)c2c1', 'Methionine aminopeptidase 2 (Homo sapiens)', 'pIC50', '5.00 to 6.00'),
  ('O=C(NCCc1ccccc1F)[C@@]1(O)CCN(c2ccc3[nH]ccc3c2)C1=O', 'Methionine aminopeptidase 2 (Homo sapiens)', 'pIC50', '6.00 to 8.00'),
  ('O=C(NCc1cc(F)cc(Cl)c1)C1(O)CCN(c2ccc3[nH]cc(C(F)(F)F)c3c2)C1=O (centres unmarked)', 'Methionine aminopeptidase 2 (Homo sapiens)', 'pIC50', '6.00 to 8.00'),
  ('NC(=O)c1cccc(N2CC[C@@](O)(C(=O)NCCc3cc(F)cc(Cl)c3)C2=O)c1', 'Methionine aminopeptidase 2 (Homo sapiens)', 'pIC50', '5.00 to 6.00'),
  ('NC(=O)c1cc2cc(N3CCC(O)(C(=O)NCc4cc(F)cc(Cl)c4)C3=O)ccc2[nH]1 (centres unmarked)', 'Methionine aminopeptidase 2 (Homo sapiens)', 'pIC50', '6.00 to 8.00'),
  ('CNS(=O)(=O)c1ccc(N2CC[C@](O)(C(=O)NCc3cc(F)cc(Cl)c3)C2=O)cc1', 'Methionine aminopeptidase 2 (Homo sapiens)', 'pIC50', '6.00 to 8.00');

Shifting focus to the molecule that follows.
Reported pIC50 of FC(F)(F)Oc1cccc(COC[C@H]2CCCN2c2ccnc3ncnn23)c1 : 6.00 to 8.00
